From: patent US20230108906A1

System: HBV rcDNA in HepDE19 cells
Assay: HepDE19 assay with bDNA quantitation of HBV rcDNA
Assay type: cell-based, hepatitis B virus (HBV)
Conditions: Hepatitis B virus, HepDE19, 168 h, inhibition of rcDNA formation in HepDE19 cells (HepG2 derived), Tet-free medium, 7 day incubation, Quantigene 2.0 bDNA readout, top concentration 25 μM; read-out: DE-19bDNA EC50
readoutName: pEC50
Reminder that pEC50 means the negative base-10 logarithm of the concentration expressed in mol/L.

For orientation, consider the following solved cases.
So what's the measured pEC50 for this one? CN(C(=O)Nc1ccc(F)c(Cl)c1)C1COCc2[nH]c(=O)c3cc(F)cc(F)c3c21 (stereo not drawn)
6.54

Entry CC(C)CN(C(=O)Nc1ccc(F)c(Cl)c1)C1COCc2[nH]c(=O)c3cc(F)ccc3c21 (stereo not drawn) please
8.00

Entry CN(C(=O)Nc1ccc(F)c(Cl)c1)C1CCCc2[nH]c(=O)c3cc(F)cc(F)c3c21 (stereo not drawn) please
6.29

Entry CN1Cc2[nH]c(=O)c3cc(F)c(F)cc3c2C(N(C)C(=O)Nc2ccc(F)c(C#N)c2)C1 (stereo not drawn) [Compound 173] please
4.89

Further cases:
So what's the measured pEC50 for this one? `CN(C(=O)Nc1ccc(F)c(C(F)F)c1)[C@@H]1COCc2c1c1cc(F)c(F)cc1c(=O)n2CCO`
7.52

Entry CN(C(=O)Nc1ccc(F)c(C(F)F)c1)C1COCc2nc(NCCN)c3cc(F)c(F)cc3c21 (racemic) please
6.52
